# study.system: human DLL3 endogenously expressed on SHP77 and NCI-H82 cells (human) (UniProt Q9NYJ7)
# Sequence (Q9NYJ7 27-618): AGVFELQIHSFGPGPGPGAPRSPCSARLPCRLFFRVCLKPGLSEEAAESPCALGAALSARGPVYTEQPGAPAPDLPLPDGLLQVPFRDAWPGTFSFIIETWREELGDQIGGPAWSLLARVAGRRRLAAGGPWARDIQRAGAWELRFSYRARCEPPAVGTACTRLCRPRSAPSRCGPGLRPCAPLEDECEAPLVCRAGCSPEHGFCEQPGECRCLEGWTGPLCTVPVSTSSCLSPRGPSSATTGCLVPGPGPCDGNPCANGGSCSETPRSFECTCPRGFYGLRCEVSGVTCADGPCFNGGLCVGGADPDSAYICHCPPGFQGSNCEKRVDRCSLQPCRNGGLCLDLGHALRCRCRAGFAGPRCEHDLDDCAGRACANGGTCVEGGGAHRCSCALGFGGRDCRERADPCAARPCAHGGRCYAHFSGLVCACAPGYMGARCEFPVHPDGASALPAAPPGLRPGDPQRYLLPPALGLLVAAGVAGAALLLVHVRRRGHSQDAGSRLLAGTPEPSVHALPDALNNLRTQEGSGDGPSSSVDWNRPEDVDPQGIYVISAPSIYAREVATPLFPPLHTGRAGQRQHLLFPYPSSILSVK
# measurement.description: FACS SHP77 cells, 0.8 nM
endpoint.name: MFI (MFI)
// return numeric value only (unit: MFI, not printed)

mab002 scFv-hFc (Fc fusion, not shown: small tags and cut ends; a dimerising Fc or GST) scFv (part 1 of 2): QIVLTQSPAIMSASPGEKVTMTCSARSSVSYMQWYQQKSGTSPKRWIYDTSKLASGVPARFSGSGSGTSYSLTISTMEAEDAATYYCQQWSSDPPTFGGGTKLEIK scFv (part 2 of 2): QIQLVQSGPELKKPGETVKISCKASGYTFTNYGMNWLKQAPGKGLKWMGWINTYTGESTYADDFKGRFAFSLETSASTVYLQINNLKNEDMATYFCARMGDGYYDFTMDYWGQGTSVTVSS	498

Now for another entry.
## Task Which MFI is listed for mab005 scFv-hFc (Fc fusion, not shown: small tags and cut ends; a dimerising Fc or GST) scFv (part 1 of 2): DIVLTQSPATLSVTPGDSVSLSCRASQSVSNDLHWYQQKSHESPRLLIKYASQSISGIPSRFSGSGSGTDFTLTINSVETEDFGMYFCQQSNNWPYTFGGGTKLEMK scFv (part 2 of 2): QVQLQQSGAELMKPGASVTLSCKATGYTLPGYWIEWVKQRPGHGLEWIGEILPGSSSANYNEKFKGKATFTADTSSNTAYMQLSSLTTEDSAIYYCASTYGTSLDYWGQGTTLTVSS ?
## Result 404
